This collection of values is drawn from PubChem BioAssay (NCI).

Some compounds, each annotated with its measured TGI.
- Test system: MDA-MB-435
- Experimental details: NCI tumour cell line growth inhibition, 48 h
Attribute measured: TGI

{"Compound": "Cn1ncc(NCCn2cnc3c2c(=O)n(C)c(=O)n3C)c(Cl)c1=O", "Assayed target": "MDA-MB-435", "Value": "> 100 µM"}
{"Compound": "CC(C)=CCc1ccc2[nH]c3c(c2c1)C(=O)C(=O)C(C)=C3C(O)C(C)O (stereo not drawn)", "Assayed target": "MDA-MB-435", "Value": "9.57 µM"}
{"Compound": "COc1cccc(-c2cc(=O)c3cc(NC(C)=O)ccc3[nH]2)c1", "Assayed target": "MDA-MB-435", "Value": "17.1 µM"}
{"Compound": "CN(C)CCCNC(=S)S", "Assayed target": "MDA-MB-435", "Value": "> 100 µM"}
{"Compound": "COc1ccc(C(=O)/C=C/c2ccc(OCc3ccc(Cl)cc3)cc2)cc1OC", "Assayed target": "MDA-MB-435", "Value": "> 1000 µM"}
{"Compound": "CC(=O)OCCOCn1cc(C=O)c2ccccc21", "Assayed target": "MDA-MB-435", "Value": "> 100 µM"}
{"Compound": "CC1(C)CSCC(C)(C)C(=N/N)/C1=N\\N", "Assayed target": "MDA-MB-435", "Value": "> 100 µM"}
{"Compound": "O=C(/C=C/c1ccc(OCc2ccccc2)c(OCc2ccccc2)c1)OCc1ccccc1", "Assayed target": "MDA-MB-435", "Value": "> 100 µM"}
{"Compound": "O=C1/C(=C/c2ccc(Cl)cc2)CCC/C1=C\\c1ccc(O)c(CN2CCCCC2)c1", "Assayed target": "MDA-MB-435", "Value": "> 100 µM"}
{"Compound": "c1ccc(C[n+]2ccc3c(c2)CCCC3)cc1", "Assayed target": "MDA-MB-435", "Value": "> 100 µM"}
{"Compound": "O=C(O)c1cc2cc(OCc3ccccc3)ccc2[nH]1", "Assayed target": "MDA-MB-435", "Value": "> 100 µM"}
{"Compound": "CCN(CCCl)CCCCNc1c2ccccc2nc2ccc(OC)cc12", "Assayed target": "MDA-MB-435", "Value": "2.12 µM"}
{"Compound": "CC(=O)CC1(O)C(=O)c2c(Br)sc(Br)c2C1=O", "Assayed target": "MDA-MB-435", "Value": "43.6 µM"}
{"Compound": "CCN1C(Cl)=NS(=O)(=O)c2ccccc21", "Assayed target": "MDA-MB-435", "Value": "> 100 µM"}
{"Compound": "COc1ccc(/C=C/C(=O)Oc2ccc(/C=C3\\CCCCC3=O)cc2)cc1", "Assayed target": "MDA-MB-435", "Value": "> 100 µM"}
{"Compound": "Cc1ccc(N=Nc2c(O)c(S(=O)(=O)O)cc3cc(S(=O)(=O)O)ccc23)c(C)c1", "Assayed target": "MDA-MB-435", "Value": "> 100 µM"}
{"Compound": "CCN(C(=O)N[C@@H](Cc1ccccc1)C(=O)N[C@@H](CC(C)C)C(=O)NC)c1ccccc1", "Assayed target": "MDA-MB-435", "Value": "> 100 µM"}
{"Compound": "Cc1ccc2c3c4c(ccc13)C(C)(C)OC4=C(C(C)C)C2=O", "Assayed target": "MDA-MB-435", "Value": "> 100 µM"}
{"Compound": "COc1ccc2oc(=O)cc(C3c4ccc([nH]4)C(c4cc(=O)oc5ccc(OC)cc45)c4ccc([nH]4)C(c4cc(=O)oc5ccc(OC)cc45)c4ccc([nH]4)C(c4cc(=O)oc5ccc(OC)cc45)c4ccc3[nH]4)c2c1 (stereo not drawn)", "Assayed target": "MDA-MB-435", "Value": "6.66 µM"}
{"Compound": "O=[N+]([O-])c1ccc(-c2nc(/C=N/N3CCCCC3)cs2)o1", "Assayed target": "MDA-MB-435", "Value": "62.6 µM"}
{"Compound": "Cc1cc2c(C(C)C)c(O)c(O)c(C=NCC3CCCN4CCCCC34)c2cc1-c1cc2c(C=NCC3CCCN4CCCCC34)c(O)c(O)c(C(C)C)c2cc1C (stereo not drawn)", "Assayed target": "MDA-MB-435", "Value": "25.8 µM"}
{"Compound": "CCOC(=O)C(C(N)=O)c1nc2cc([N+](=O)[O-])ccc2nc1/C=C(\\O)c1ccccc1 (stereo not drawn)", "Assayed target": "MDA-MB-435", "Value": "31.3 µM"}
{"Compound": "C[C@]12CC[C@H](O)C[C@@H]1CC[C@@H]1[C@@H]2CC[C@]2(C)[C@@H](c3cc(C(F)(F)F)n[nH]3)CC[C@@H]12", "Assayed target": "MDA-MB-435", "Value": "22.9 µM"}
{"Compound": "O=C1CS/C(=N/S(=O)(=O)c2ccc(N3N=C4c5ccccc5CC4C3c3cccs3)cc2)N(c2ccccc2)C1 (stereo not drawn)", "Assayed target": "MDA-MB-435", "Value": "> 100 µM"}
{"Compound": "O=[N+]([O-])[O][Sn]([O][Sn]([O][N+](=O)[O-])([c]1ccccc1)[c]1ccccc1)([c]1ccccc1)[c]1ccccc1", "Assayed target": "MDA-MB-435", "Value": "> 100 µM"}
{"Compound": "COC(=O)N1c2ccc3c(nc(Cc4ccccc4)n3[C@H]3CCC[C@H](C(=O)O)C3)c2CC[C@@H]1C", "Assayed target": "MDA-MB-435", "Value": "> 100 µM"}
{"Compound": "CCOC1c2cc(OC)c(OC)cc2-c2ccc3ccccc3c2N1C (stereo not drawn)", "Assayed target": "MDA-MB-435", "Value": "36.7 µM"}
{"Compound": "Cc1ccc(-n2c(C)n[nH]c2=O)cc1", "Assayed target": "MDA-MB-435", "Value": "> 100 µM"}
{"Compound": "C=CCCC(CCC=C)(C(=O)O)C(=O)O", "Assayed target": "MDA-MB-435", "Value": "> 100 µM"}
{"Compound": "COc1ccc2c(c1)-c1c(c3cc(OC)ccc3n1CCN1CCOCC1)CC2", "Assayed target": "MDA-MB-435", "Value": "> 100 µM"}
{"Compound": "O=C(O)c1cccc(CN2CCCCC2)c1", "Assayed target": "MDA-MB-435", "Value": "> 100 µM"}
{"Compound": "COc1cccc(C2SCC(=O)N2c2ccc(-c3ccc(-n4c(-c5ccccc5)nc5ccccc5c4=O)cc3)cc2)c1OC (stereo not drawn)", "Assayed target": "MDA-MB-435", "Value": "> 100 µM"}
{"Compound": "CCOC(=O)CC1c2ccc(O)cc2OC(=O)C1c1ccc(N)cc1 (stereo not drawn)", "Assayed target": "MDA-MB-435", "Value": "> 100 µM"}

---

- System: MDA-N
- Experimental details: NCI tumour cell line growth inhibition, 48 h
Attribute measured: TGI (µM)

{"Molecule": "CN1N=C(c2ccncc2)OC1c1ccc(Cl)cc1Cl (stereo unspecified)", "Censoring sign": ">", "Value": 100}
{"Molecule": "O=C(Cc1nc2cccnc2nc1/C=C(\\O)c1ccccc1)c1ccccc1", "Censoring sign": ">", "Value": 100}
{"Molecule": "CCCCCCC(C)c1ccc2c(c1)C(=O)c1nc3ccncc3c(=O)n1-2 (stereo unspecified)", "Censoring sign": "=", "Value": 0.6}
{"Molecule": "O=P(Nc1ccccc1)(Oc1ccccc1)N1CCN(c2ccccc2)CC1 (stereo unspecified)", "Censoring sign": "=", "Value": 31.6}
{"Molecule": "CCCCCc1c(Cl)nc(Cl)nc1Cl", "Censoring sign": "=", "Value": 16.6}
{"Molecule": "NCc1ccc(O)c(O)c1", "Censoring sign": ">", "Value": 100}

---

- Test system: SK-MEL-28 melanoma
- Experimental details: NCI tumour cell line growth inhibition, 48 h
Attribute measured: TGI (µM)

{"Molecule": "CC12CC[C@@H]3c4cc5c(cc4CC[C@H]3[C@@H]1CCC2O)oc1cc(F)ccc15 (some centres undefined)", "Quantity unit": "µM", "Censoring sign": "=", "Value": 58.8}
{"Molecule": "NCCSCC(N)C(=O)O (centres undefined)", "Quantity unit": "µM", "Censoring sign": ">", "Value": 497}
{"Molecule": "CC(=O)OCCOCn1cc(C=O)c2ccccc21", "Quantity unit": "µM", "Censoring sign": ">", "Value": 100}
{"Molecule": "O=C(Nc1ccc(Cl)cc1)Oc1ccc(C(=S)Nc2ccc(Br)cc2)cc1", "Quantity unit": "µM", "Censoring sign": "=", "Value": 48.4}

---

- Tested on: UACC-257 melanoma
- Experimental details: NCI tumour cell line growth inhibition, 48 h

{"Compound": "O=C1c2ccccc2C2(O)Nc3c(ccc4ccccc34)C12O (stereo unspecified)", "TGI": "> 100 µM"}
{"Compound": "COC(=O)[C@@H](NC1(c2ccccc2)c2ccccc2-c2ccccc21)[C@H](OC(=O)[C@H]1CCCN1S(=O)(=O)c1ccccc1)C(=O)OC", "TGI": "> 100 µM"}
{"Compound": "COc1ccc(NC(=O)c2sc3nc(C)c(C(=O)/C=C/c4ccccc4)cc3c2N)cc1", "TGI": "3.56 µM"}
{"Compound": "Cc1cc(=O)[nH]c(NN2C(Cl)C(=O)C2c2ccc(O)cc2)n1 (stereo unspecified)", "TGI": "26.1 µM"}
{"Compound": "Cc1ccc(-n2c(C)n[nH]c2=O)cc1", "TGI": "> 100 µM"}
{"Compound": "Nc1c(C(=O)Nc2ccccc2)sc2nc3c(cc12)C(O)CCC3 (stereo unspecified)", "TGI": "> 100 µM"}
